The measurements presented in this section are drawn from patent US7482378B2.

- assay-remarks: Relative cooling strength of individual coolants, organoleptic sequential dilution method versus standard 10 ppm WS-3 solution in water
- Format: in vivo
- study-conditions: relative to 10 ppm WS-3 in water assigned 10.0; values accepted in the art and confirmed by expert evaluation
value-type: Relative cooling strength

>>> result("CCNC(=O)[C@@H]1C[C@H](C)CC[C@H]1C(C)C [WS-3, N-ethyl-3-p-menthane carboxamide]")
10.0
>>> result("CC(C)[C@@H]1CC[C@@H](C)C[C@H]1C(=O)NC(C)(C)C [WS-14, N-tert-butyl-3-p-menthane carboxamide]")
"about 5.0"
>>> result("CNC(=O)C(C)(C(C)C)C(C)C [WS-23, N,2,3-trimethyl-2-isopropyl butanamide]")
"about 5.0"
